src = PubChem BioAssay

- Assayed Target: NADPH oxidase 5 (Homo sapiens) (UniProt Q96PH1)
- Sequence (Q96PH1 whole entry, looked up): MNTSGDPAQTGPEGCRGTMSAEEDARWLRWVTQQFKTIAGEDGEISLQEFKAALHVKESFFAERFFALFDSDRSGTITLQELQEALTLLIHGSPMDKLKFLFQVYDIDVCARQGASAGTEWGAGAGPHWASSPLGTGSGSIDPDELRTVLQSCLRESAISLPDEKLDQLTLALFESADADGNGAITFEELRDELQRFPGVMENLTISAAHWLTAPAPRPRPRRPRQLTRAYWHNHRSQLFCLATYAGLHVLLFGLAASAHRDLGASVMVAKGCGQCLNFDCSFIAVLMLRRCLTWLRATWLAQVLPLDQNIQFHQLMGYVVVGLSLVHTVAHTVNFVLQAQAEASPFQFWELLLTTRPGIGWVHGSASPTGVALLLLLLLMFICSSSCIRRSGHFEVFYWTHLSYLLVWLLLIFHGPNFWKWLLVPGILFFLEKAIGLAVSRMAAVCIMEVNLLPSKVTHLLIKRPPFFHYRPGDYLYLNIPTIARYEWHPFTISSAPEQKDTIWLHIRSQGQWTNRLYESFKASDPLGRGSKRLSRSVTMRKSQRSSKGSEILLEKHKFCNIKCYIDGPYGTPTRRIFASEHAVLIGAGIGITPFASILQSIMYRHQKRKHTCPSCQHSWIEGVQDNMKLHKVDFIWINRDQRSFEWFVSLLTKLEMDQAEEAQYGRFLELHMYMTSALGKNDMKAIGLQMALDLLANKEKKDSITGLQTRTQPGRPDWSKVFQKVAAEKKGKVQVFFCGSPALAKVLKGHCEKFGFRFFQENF
- Test Name: NOX5-dependent H2O2 signal modulators, primary screen, NOX inhibitor project, cell-based, HEK293-NOX5, Amplex Red fluorescence (AID 1161)
- Test Parameters: HEK293-NOX5, ionomycin, 45 min, higher = more signal
Catalogue of z-score readings, one per entry.
Form rule: numeric answer, no unit written next to it.

The examples below pair each entry with its known result.
{"columns": ["Molecule", "z-score"],
 "data": [
  ["C[C@@H](c1ccccc1)N1C(=O)[C@H]2[C@H]3[C@H](O)[C@H](O)CC(=NOC[C@@H](O)COCc4ccco4)[C@@H]3CC[C@H]2C1=O", -0.681],
  ["COC(=O)C1=C(C)N(Cc2ccccc2)[C@]23O[C@](C(=O)OC)(C(=O)N2[C@@H]1c1ccccc1)[C@H]1CCOC(=O)[C@H]13", 1.06],
  ["C#C[C@@H](CC)O[Si](C#Cc1ccc(Oc2ccccc2)cc1)(C(C)C)C(C)C", -1.51],
  ["[N-]=[N+]=NCc1ccccc1C[C@]1(C(=O)NCc2ccccc2)N=C(c2ccc(OCCCO)cc2)O[C@H]1c1ccccc1N=[N+]=[N-]", -1.66],
  ["CCOC(=O)NN=C1C[C@@H](O)[C@@H](O)[C@@H]2[C@@H]3C(=O)N(CC)C(=O)[C@@H]3CC[C@@H]12", -0.641],
  ["CCOC(=O)[C@H](Cc1ccccc1)NC(=O)CCC1CC(OC(=O)NCc2ccc3c(c2)OCO3)CC2(CCCC(COC(=O)NCc3cccc(C(F)(F)F)c3)O2)O1 (some centres undefined)", -0.999]
]}

query: Reported z-score for `CCCNC(=O)[C@@H]1c2ccccc2C(=O)N(c2ccc(C)cn2)[C@H]1c1ccc(CO)cc1` : what is it?
result: -0.974
